System: RPMI-8226 leukemia
experiment_description: NCI tumour cell line growth inhibition, 48 h
endpoint: TGI

// worked examples, TGI included
O=C(O)CCCSc1nc2ccccc2s1 : > 100 µM
CO[C@@H]1C=C[C@@]23c4cc5c(cc4C(O)N(CC2O)C3C1)OCO5 (stereo partly specified) : > 100 µM
CN(C)CCNC(=O)Cn1ccc(=O)c2ccc([N+](=O)[O-])cc21 : > 100 µM
COc1ccc(/C=C2\SC(c3ccc(OC)cc3)N(NC(=O)Cc3ccccc3)C2=O)cc1 (stereo unspecified) : > 100 µM
O=C(/C=C\c1ccccc1)Oc1ccc(/C=C2\CCCCC2=O)cc1 : 50.6 µM
ICCC(c1ccccc1)(c1ccccc1)c1ccccc1 : 17.1 µM
COc1cc2nc(-c3ccccc3F)[nH]c(=O)c2cc1OC : > 100 µM
CC(C)c1c(O[Si](C(C)C)(C(C)C)C(C)C)c2c3c(ccc4c3c1OC4(C)C)C(C)CC2 (stereo unspecified) : > 100 µM

# input For the compound CC(C)(C)OC(=O)NC(Cc1ccc(OCc2ccccc2)cn1)C(=O)NCc1ccccc1 (stereo unspecified) , what TGI is on record?
# output 44.9 µM

# input For the compound C#C[C@@]1(O)[C@@H](CO)O[C@@H](n2ccc3c(N)ncnc32)[C@@H]1O , what TGI is on record?
# output > 100 µM

# input For the compound CN1CCCC1=NC#N , what TGI is on record?
# output > 100 µM

---

Test system: HOP-62 NSCLC
experiment_description: NCI tumour cell line growth inhibition, 48 h; in the data active = GI50 below about 0.43 µM; inactive = the rest
Output constraint: value belongs to t = active, f = inactive

Would you please look over these solved cases?
CC(=O)OC1CCC2(C)C(CCC3C4CC=C(C(C)=O)C4(C)OC(=O)CC32)C1 (stereo unspecified) : f
CNNC(=N\S(=O)(=O)c1cc(C(=O)Nc2ccc(Cl)cc2)c(Cl)cc1SCc1ccccc1)/N=C/c1ccc([N+](=O)[O-])s1 : f
COc1cc2nc(N3CCCC3)nc(Nc3ccccc3)c2cc1OC : f
CO/N=C(/COc1c(-c2ccccc2)oc2ccccc2c1=O)c1ccc(OC)cc1 : f

# input Please indicate how the test categorized CC1(C)CC(OCCCC[P+](c2ccccc2)(c2ccccc2)c2ccccc2)CC(C)(C)N1O .
# output f

# input Please indicate how the test categorized COc1cc2c(c(OC)c1OC)-c1ccc(SC)c(=O)cc1[C@@H](NCc1cccc(C#N)c1)CC2 .
# output t

# input Please indicate how the test categorized O=C(NC(=S)NNC(=S)NNc1ccccc1)c1ccccc1 .
# output f

---

System: K-562 leukemia
experiment_description: NCI tumour cell line growth inhibition, 48 h
endpoint: TGI (µM)
Report as a plain number; the unit µM is understood.

CCCNC(C#N)c1ccc(OCCCCCCCCCCOc2ccc(C(C#N)NCCC)cc2)cc1 (stereo not given) : 76.3

# input Requested read-out TGI, target or system K-562 leukemia, entry O=C1OC(C2=CC(=O)c3ccccc3C2=O)C(Cl)=C1Cl (stereo not given)
# output 83.3

---

Tested on: NCI-H460 lung
Output constraint: value belongs to Y = active, N = inactive

Would you please look over these solved cases?
O=C(NNc1ccccc1)OCc1ccccc1 : N
COc1ccc(/C=C/C(=O)c2ccc3cc(OC)c(OC)cc3c2)cc1OC : N
COc1cc2ccnc3c2c(c1OC)-c1ccc(=O)ccc1-3 : N
Cc1ccc2c(Nc3cccc(Cl)c3F)ncc(NC(=O)c3csc4c(N)ncnc34)c2c1 : N
CN(C)C(=O)c1cc2cnc(Nc3ccc(-c4csc5c(=O)cc(N6CCNCC6)oc45)cc3)nc2n1C1CCCC1 : N

# input Please indicate how the test categorized C/C1=C\C/C=C(\C)[C@H]2CC(CC/C(C)=C/CC1)[C@@](C)(CO)O2 .
# output N

# input Please indicate how the test categorized CCCCCCCCCCCC[n+]1ccccc1 .
# output N

# input Please indicate how the test categorized C#C[C@@]1(O)[C@@H](CO)O[C@@H](n2ccc3c(N)ncnc32)[C@@H]1O .
# output N

# input Please indicate how the test categorized CC[C@H](C)[C@H](NC(=O)Nc1ccccc1)C(=O)N(C)[C@H](C[C@@H](OC(C)=O)c1nc(C(=O)N[C@@H](Cc2ccccc2)C[C@H](C)C(=O)OC)cs1)C(C)C .
# output N

# input Please indicate how the test categorized Cc1ccc(N=Nc2c(N)nn(-c3ccccc3)c2N)cc1 .
# output N

---

System: SK-MEL-28 melanoma
experiment_description: NCI tumour cell line growth inhibition, 48 h
// reported TGI for each item listed

CO[C@H]1C[C@@H]2CC[C@@H](C)[C@@](O)(O2)C(=O)C(=O)N2CCCC[C@H]2C(=O)O[C@H]([C@H](C)C[C@@H]2CC[C@@H](OP(C)(C)=O)[C@H](OC)C2)CC(=O)[C@H](C)/C=C(\C)[C@@H](O)[C@@H](OC)C(=O)[C@H](C)C[C@H](C)/C=C/C=C/C=C/1C : 23.8 µM
COC(=O)[C@@H]1C2OC(C)(C)OC2CN1C(=O)OCc1ccccc1 (stereo partly drawn) : > 100 µM
CN(C)CCNC(=O)Cn1ccc(=O)c2ccc([N+](=O)[O-])cc21 : > 100 µM

# input For the compound O=C(Cc1ccccc1)NNc1nc(NNC(=O)c2ccncc2)nc(Nc2ccccc2)n1 , what TGI is on record?
# output > 10 µM

# input For the compound Cn1c(=O)c2c(nc(N)n2C2OC(CO)C(O)C2O)n(C)c1=O (stereo not drawn) , what TGI is on record?
# output > 100 µM

# input For the compound Cc1ccccc1-c1c(N)nc(N)nc1C(=O)Nc1nccs1 , what TGI is on record?
# output > 100 µM

# input For the compound COc1ccc2nc(NC(=O)C(=O)C(C(=O)c3ccccc3-c3ccccc3)C3OC(=O)c4ccccc43)sc2c1 (stereo not drawn) , what TGI is on record?
# output 51 µM

# input For the compound O=C(NNc1ccccc1)OCc1ccccc1 , what TGI is on record?
# output > 100 µM

---

Tested on: MOLT-4 leukemia
experiment_description: NCI tumour cell line growth inhibition, 48 h
endpoint: TGI

// worked examples, TGI included
Nc1nc(N)c2c(ccc3nccc32)[nH]1 : > 92.1 µM
CN1CCN(Cc2ccc(NC(=O)c3nc4ccc5[nH]ncc5c4c4c3CCC4)cc2C(F)(F)F)CC1 : 2.58 µM
NC(=O)Nc1cc(O)ccc1N=Nc1ccc(S(=O)(=O)Nc2ccccn2)cc1 : > 100 µM

# input For the molecule Cc1ccc2c(Nc3cccc(Cl)c3F)ncc(NC(=O)c3csc4c(N)ncnc34)c2c1 , what TGI is on record?
# output > 100 µM

---

System: DU-145 prostate
experiment_description: NCI tumour cell line growth inhibition, 48 h; in the data active means GI50 below about 0.43 µM; inactive means the rest
Output constraint: value belongs to active, inactive

Would you please look over these solved cases?
CNNC(=N\S(=O)(=O)c1cc(C(=O)Nc2ccc(Cl)cc2)c(Cl)cc1SCc1ccccc1)/N=C/c1ccc([N+](=O)[O-])s1 : inactive
C#C[C@@]1(O)[C@@H](CO)O[C@@H](n2ccc3c(N)ncnc32)[C@@H]1O : inactive
CC1(C)CC(OCCCC[P+](c2ccccc2)(c2ccccc2)c2ccccc2)CC(C)(C)N1O : active
Cc1ccc(-c2cc3nc(C(Cl)Cl)nc(-c4cccnc4)n3n2)cc1 : inactive

# input Please indicate how the test categorized Cc1ccc2c(Nc3cccc(Cl)c3F)ncc(NC(=O)c3csc4c(N)ncnc34)c2c1 .
# output inactive

---

Tested on: OVCAR-5 ovarian
experiment_description: NCI tumour cell line growth inhibition, 48 h
Where a SMILES comes first, the peptide text is derived from it.
endpoint: TGI

// worked examples, TGI included
CC(=O)NC(CS)C(=O)NC(CO)C(=O)NC(CO)C(=O)NC(Cc1c[nH]c2ccccc12)C(=O)N1CCCC1C(=O)NC(CO)C(=O)NC(Cc1c[nH]c2ccccc12)C(=O)NC(Cc1c[nH]cn1)C(=O)NC(CO)C(=O)NC(Cc1c[nH]c2ccccc12)C(=O)NCC(=O)NCC(=O)NC(CC(=O)O)C(=O)NC(CCC(N)=O)C(=O)NC(CCCCN)C(=O)NC(Cc1ccccc1)C(=O)NC(CCCNC(=N)N)C(=O)NC(CCCCN)C(N)=O (stereo not given) (Ac-CSSWPSWHSWGGDQKFRK-NH2; configuration not given here) : > 25 µM
CCN1C(=O)c2ccccc2C1(O)c1ccc(Cl)cc1 (stereo not given) : > 100 µM
Nc1ccn(C2CC(O)C(CO)O2)c(=O)n1 (stereo not given) : > 5000 µM
CN(C)CC/C(=N\Nc1ccc(Cl)c(Cl)c1)c1ccccc1 : 6.34 µM
CC[C@H](C)C1=C(O)[N@+]2([O-])Oc3ccc(-c4c(O)c(O)c(-c5ccc(OC(C)=O)cc5)c(OC(C)=O)c4OC(C)=O)cc3O[C@]2([C@@H](C)CC)C(=O)N1O : > 50 µM
COc1cc2ccnc3c2c(c1OC)-c1ccc(=O)ccc1-3 : > 100 µM
COc1ccc([C@H]2C=C(c3cc(F)c(Cl)cc3Cl)NC(=S)N2)cc1 : > 100 µM
C[n+]1ccc(-c2cc[n+](C)cc2)cc1 : 37.9 µM

Here is the next item to consider.
# input For the compound Nc1ccc2c(c1)CC1c3ccccc3C(C2)c2ccccc21 , what TGI is on record?
# output > 100 µM

Values from PubChem BioAssay (NCI)
